- study system: Replicase polyprotein 1ab (Severe acute respiratory syndrome coronavirus 2, UniProt P0DTD1)
- method: Inhibition of SARS-CoV-2 3CL protease expressed in Escherichia coli BL21 (DE3) Rosetta competent cells using DabcylKNSTLQSGLRKE-Edan as fluorescence substrate preincubated for 60 mins followed by substrate addition and measured after 20 mins by FRET assay
// returns rule not met unless IC50 is strictly below 0.3 µM, in which case rule met

Reference set (6 entries):
compound	assigned class
O=S(=O)(Cc1ccc2cnccc2c1)c1nnc(-c2ccc(Cl)cc2)o1	rule not met
O=S(=O)(c1nnc(-c2ccc(Cl)cc2)o1)C1COC1	rule not met
[O-][S+](Cc1ccncc1)c1nnc(-c2ccc(Cl)cc2)o1 (stereo not given)	rule not met
O=S(=O)(Cc1ccncc1)c1nnc(-c2ccc(Cl)cc2)o1	rule met
COCC[S+]([O-])c1nnc(-c2ccc(Cl)cc2)o1 (stereo not given)	rule not met
O=S(=O)(Cc1cscn1)c1nnc(-c2ccc(Cl)cc2)o1	rule not met

query: Hi there! Is IC50 for CC(C)(C)c1ccc(-c2nnc([S+]([O-])Cc3cccnc3)o2)cc1 (stereo not given) below 0.3 µM, do you know?
result: rule met

query: Bench note: check whether N#Cc1ccc(-c2nnc([S+]([O-])Cc3cccnc3)o2)cc1 (stereo not given) shows IC50 below 0.3 µM
result: rule met

query: Report whether reported IC50 is lower than 0.3 µM (strictly) for O=S(=O)(c1nnc(-c2ccc(Cl)cc2)o1)C1CCOC1 (stereo not given)
result: rule met

###

- study system: Cathepsin B (Homo sapiens, UniProt P07858)
measurement label: pIC50
Answer as the number alone; pIC50 is minus log10 of concentration in mol/L.

query: Give pIC50 for [O-][S+](Cc1cccnc1)c1nnc(-c2ccc(Br)cc2)o1 (stereo unspecified) tested on Cathepsin B (Homo sapiens, UniProt P07858).
result: 5.87

###

- study system: UniProt P0DTD1
- method: Time dependent inhibition of SARS-CoV-2 3CL protease expressed in Escherichia coli BL21 (DE3) Rosetta competent cells measured after 5 mins by FRET assay
measurement label: IC50 (µM)
The reply should be a number in µM, with the unit left off.

query: For the compound [O-][S+](Cc1cccnc1)c1nnc(-c2ccc(Br)cc2)o1 (stereo unspecified) , give its reported IC50.
result: 0.139

###

- study system: Replicase polyprotein 1ab (Severe acute respiratory syndrome coronavirus 2, UniProt P0DTD1)
- method: Inhibition of SARS-CoV-2 3CL protease expressed in Escherichia coli BL21 (DE3) Rosetta competent cells using DabcylKNSTLQSGLRKE-Edan as fluorescence substrate preincubated for 60 mins followed by substrate addition and measured after 20 mins by FRET assay
measurement label: pIC50
Note on units: pIC50 is unitless, being -log10 of a concentration expressed in mol/L.

query: Look up and state reported pIC50 for [O-][S+](Cc1cccnc1)c1nnc(-c2ccc(C(F)(F)F)cc2)o1 (stereo unspecified)
result: 7.07

query: Check the records and state pIC50 for [O-][S+](Cc1cccnc1)c1nnc(-c2ccccc2Br)o1 (stereo unspecified)
result: 7.19

query: Provide one value: measured pIC50 of O=S(=O)(Cc1cccnc1)c1nnc(-c2ccc(Cl)cc2)o1
result: 6.22

query: Give the reported value of pIC50 for this record: [O-][S+](Cc1cccnc1)c1nnc(-c2ccc(F)cc2)o1 (stereo unspecified)
result: 6.77

query: Let me know recorded pIC50 for [O-][S+](c1ccccc1)c1nnc(-c2ccc(Cl)cc2)o1 (stereo unspecified) , thanks.
result: 6.24

query: Let me know recorded pIC50 for COCCS(=O)(=O)c1nnc(-c2ccc(Cl)cc2)o1 , thanks.
result: 6.60

query: Hello, please tell me recorded pIC50 for this one: [O-][S+](Cc1cccnc1)c1nnc(-c2ccccc2)o1 (stereo unspecified)
result: 6.40

query: Annotate the compound O=S(=O)(CC1CC1)c1nnc(-c2ccc(Cl)cc2)o1 with its measured pIC50.
result: 6.80

query: Specify measured pIC50 for [O-][S+](c1nnc(-c2ccc(Cl)cc2)o1)C1COC1 (stereo unspecified) .
result: 6.30

query: Assign pIC50 to the following record: CC[S+]([O-])c1nnc(-c2ccc(Cl)cc2)o1 (stereo unspecified)
result: 5.69

###

- study system: Replicase polyprotein 1ab (Severe acute respiratory syndrome coronavirus 2)
- method: Time dependent inhibition of SARS-CoV-2 3CL protease expressed in Escherichia coli BL21 (DE3) Rosetta competent cells measured after 30 mins by FRET assay
measurement label: pIC50
Reminder that pIC50 means the negative base-10 logarithm of the concentration expressed in mol/L.

query: Quickly give me recorded pIC50 for [O-][S+](Cc1cccnc1)c1nnc(-c2ccc(Br)cc2)o1 (stereo unspecified)
result: 7.35

###

- study system: Replicase polyprotein 1ab (Severe acute respiratory syndrome coronavirus 2, UniProt P0DTD1)
- method: Time dependent inhibition of SARS-CoV-2 3CL protease expressed in Escherichia coli BL21 (DE3) Rosetta competent cells measured after 15 mins by FRET assay
measurement label: pIC50
Keep it numeric: pIC50 is minus log10 of the concentration in mol/L.

query: Input [O-][S+](Cc1cccnc1)c1nnc(-c2ccc(Br)cc2)o1 (stereo unspecified) , output reported pIC50.
result: 7.11

###

- method: Cytotoxicity against African green monkey Vero E6 cells measured after 24 hrs by CCK-8 method
- Format: toxicity, cell-based, Vero C1008
- condition description: chlorocebus sabaeus, read-out: TC50
Returns: string. Value is criterion met if measured CC50 at 24 h is below 30 µM, and criterion not met if it is greater than or equal to it.

Answered examples (3):
molecule	assigned class
[O-][S+](Cc1cccnc1)c1nnc(-c2ccc(Br)cc2)o1 (stereo not given)	criterion not met
[O-][S+](Cc1cccnc1)c1nnc(-c2cccc(Br)c2)o1 (stereo not given)	criterion met
[O-][S+](Cc1cccnc1)c1nnc(-c2ccc(C(F)(F)F)cc2)o1 (stereo not given)	criterion not met

query: Is it true that CC50 at 24 h reported for [O-][S+](Cc1cccnc1)c1nnc(-c2ccccc2Br)o1 (stereo not given) is less than 30 µM?
result: criterion not met

###

- study system: Replicase polyprotein 1ab (Severe acute respiratory syndrome coronavirus 2)
- method: Time dependent inhibition of SARS-CoV-2 3CL protease expressed in Escherichia coli BL21 (DE3) Rosetta competent cells measured after 60 mins by FRET assay
measurement label: IC50 (nM)
Numbers only; they are read as nM.

query: Recall and state the measured IC50 for [O-][S+](Cc1cccnc1)c1nnc(-c2ccc(Br)cc2)o1 (stereo unspecified) .
result: 30

###

- study system: Replicase polyprotein 1ab (Severe acute respiratory syndrome coronavirus 2)
- method: Inhibition of SARS-CoV-2 3CL protease expressed in Escherichia coli BL21 (DE3) Rosetta competent cells using DabcylKNSTLQSGLRKE-Edan as fluorescence substrate preincubated for 60 mins followed by substrate addition and measured after 20 mins by FRET assay
Decision: IC50 beneath 300 nM gives yes; IC50 meeting or exceeding 300 nM gives no.

Example entries begin here.
molecule	assigned class
[O-][S+](Cc1cccnc1)c1nnc(-c2cccc(Br)c2)o1 (stereo unspecified)	yes
Cc1ccc(-c2nnc([S+]([O-])Cc3cccnc3)o2)cc1 (stereo unspecified)	yes

query: Please determine if [O-][S+](Cc1ccccn1)c1nnc(-c2ccc(Cl)cc2)o1 (stereo unspecified) is below 300 nM in terms of IC50.
result: yes

query: Decide: IC50 of O=S(=O)(Cc1ccccc1)c1nnc(-c2ccc(Cl)cc2)o1 strictly below 300 nM?
result: no

query: A record lists O=S(=O)(Cc1ncccn1)c1nnc(-c2ccc(Cl)cc2)o1 . Is its IC50 below 300 nM?
result: no

query: In plain terms, does CCS(=O)(=O)c1nnc(-c2ccc(Cl)cc2)o1 come in under 300 nM for IC50?
result: yes

query: Is 300 nM strictly greater than the molecule's reported IC50? molecule: C[S+]([O-])c1nnc(-c2ccc(Cl)cc2)o1 (stereo unspecified)
result: no

query: Identify whether the molecule [O-][S+](Cc1ccccc1)c1nnc(-c2ccc(Cl)cc2)o1 (stereo unspecified) records IC50 below 300 nM.
result: no

query: Check if IC50 falls below 300 nM for CS(=O)(=O)c1nnc(-c2ccc(Cl)cc2)o1 .
result: yes

query: Is it true that IC50 reported for O=S(=O)(Cc1ccccn1)c1nnc(-c2ccc(Cl)cc2)o1 is less than 300 nM?
result: no

query: Record [O-][S+](Cc1ccc2cnccc2c1)c1nnc(-c2ccc(Cl)cc2)o1 (stereo unspecified) : is its IC50 strictly below 300 nM?
result: no

query: Given [O-][S+](c1nnc(-c2ccc(Cl)cc2)o1)C1CCOC1 (stereo unspecified) , is recorded IC50 strictly lower than 300 nM?
result: no

###

- study system: Replicase polyprotein 1ab (Severe acute respiratory syndrome coronavirus 2, UniProt P0DTD1)
- method: Inhibition of SARS-CoV-2 3CL protease expressed in Escherichia coli BL21 (DE3) Rosetta competent cells using DabcylKNSTLQSGLRKE-Edan as fluorescence substrate preincubated for 60 mins followed by substrate addition and measured after 20 mins by FRET assay
Please respond with met when measured IC50 is strictly beneath 200 nM, and with not met in all other cases.

A selection of reference data follows.
molecule	assigned class
[O-][S+](Cc1cccnc1)c1nnc(-c2ccc(Cl)cc2)o1 (centres undefined)	met
[O-][S+](Cc1cscn1)c1nnc(-c2ccc(Cl)cc2)o1 (centres undefined)	met
[O-][S+](Cc1ncccn1)c1nnc(-c2ccc(Cl)cc2)o1 (centres undefined)	met
[O-][S+](CC1CC1)c1nnc(-c2ccc(Cl)cc2)o1 (centres undefined)	not met
COc1ccc(C(=C[C@@H]2COC[C@H]2S(=O)(=O)c2nnc(-c3ccc(Cl)cc3)o2)c2ccc(OC)cc2)cc1	not met

query: Could you please tell me whether IC50 recorded for O=S(=O)(c1ccccc1)c1nnc(-c2ccc(Cl)cc2)o1 is less than 200 nM?
result: not met

query: Record COc1ccc(C(=C[C@@H]2COC[C@H]2S(=O)(=O)c2nc(-c3ccc(Cl)cc3)cs2)c2ccc(OC)cc2)cc1 : is its IC50 strictly below 200 nM?
result: not met

query: Field: below-cutoff. Rule: recorded IC50 strictly less than 200 nM. Subject: [O-][S+](Cc1cccnc1)c1nnc(-c2ccc(Br)cc2)o1 (centres undefined)
result: met
